Where do the numbers come from? From patent US5232917A.

Catalogue of molecules with associated Max. Inhib., maximal % of specifically bound [35S]-TBPS displaced
Tested on: GABA receptor-chloride ionophore complex (GR complex)
protocol.details: [35S]TBPS binding modulation assay
particulars: saturating concentrations of test compound
test.readout: Max. Inhib., maximal % of specifically bound [35S]-TBPS displaced (%)

molecule | assayed.system | result.unit | measured.result
CC(=O)C1=CC[C@H]2[C@@H]3CC[C@H]4C[C@H](O)CC[C@]4(C)[C@H]3CC[C@]12C [3α-HYDROXY-5α-PREGN-16-EN-20-ONE] | GABA receptor-chloride ionophore complex (GR complex) | % | 100
C[C@]12CC[C@@H](O)C[C@@H]1CC[C@@H]1[C@@H]2CC[C@]2(C)[C@@H](C(=O)CCl)CC[C@@H]12 [21-CHLORO-5α-PREGNAN-3α-OL-20-ONE] | GABA receptor-chloride ionophore complex (GR complex) | % | 100
CC(=O)[C@H]1CC[C@H]2[C@@H]3CCC4=C[C@H](O)CC[C@]4(C)[C@H]3CC[C@]12C [3α-HYDROXY-4-PREGNEN-20-ONE] | GABA receptor-chloride ionophore complex (GR complex) | % | 80

###

As shown below, each of these compounds has a reported Max. Inhib., maximal % of specifically bound [35S]-TBPS displaced value.
Test system: GABA receptor-chloride ionophore complex (GR complex)
protocol.details: [35S]TBPS binding modulation assay
particulars: saturating concentrations of test compound
test.readout: Max. Inhib., maximal % of specifically bound [35S]-TBPS displaced (%)

compound | assayed.system | result.unit | measured.result
C[C@]12CC[C@@H]3c4ccc(O)cc4CC[C@H]3[C@@H]1CC[C@@H]2O [17β-ESTRADIOL, reference compound] | GABA receptor-chloride ionophore complex (GR complex) | % | 0
CC(C)(O)[C@H]1CC[C@H]2[C@@H]3CC[C@H]4C[C@H](O)CC[C@]4(C)[C@H]3CC[C@]12C [3α,20-dihydroxy-20-methyl-5α-pregnane] | GABA receptor-chloride ionophore complex (GR complex) | % | 45
CC(C)CCC[C@@H](C)[C@H]1CC[C@H]2[C@@H]3CC=C4C[C@@H](O)CC[C@]4(C)[C@H]3CC[C@]12C [CHOLESTEROL, reference compound] | GABA receptor-chloride ionophore complex (GR complex) | % | 0
C/C=C1/CC[C@H]2[C@@H]3CC[C@H]4C[C@H](O)CC[C@]4(C)[C@H]3CC[C@]12C [3α-HYDROXY-5α-CIS-PREGN-17(20)-ENE, 3α-hydroxy-(5α)-cis-pregn-17(20)-ene] | GABA receptor-chloride ionophore complex (GR complex) | % | 100
CC(=O)C1=CC[C@H]2[C@@H]3CC[C@@H]4C[C@H](O)CC[C@]4(C)[C@H]3CC[C@]12C [3α-HYDROXY-5β-PREGN-16-EN-20-ONE] | GABA receptor-chloride ionophore complex (GR complex) | % | 100
CC(C)(O)[C@H]1CC[C@H]2[C@@H]3CC[C@H]4C[C@](C)(O)CC[C@]4(C)[C@H]3CC[C@]12C | GABA receptor-chloride ionophore complex (GR complex) | % | 50
CC(=O)[C@H]1CC[C@H]2[C@@H]3CC[C@H]4C[C@](C)(O)CC[C@]4(C)[C@H]3CC[C@]12C [3α-HYDROXY-3β-METHYL-5α-PREGNAN-20-ONE, 3α-hydroxy-3β-methyl-5α-pregnan-20-one] | GABA receptor-chloride ionophore complex (GR complex) | % | 100
CC(=O)[C@H]1CC[C@H]2[C@@H]3CC[C@H]4C[C@@](C)(O)CC[C@]4(C)[C@H]3CC[C@]12C [3β-HYDROXY-3α-METHYL-5α-PREGNAN-20-ONE, 3β-HYDROXY-3α-METHYL-5α- PREGNAN-20-ONE] | GABA receptor-chloride ionophore complex (GR complex) | % | 55
C[C@]12CC[C@@H](O)C[C@@H]1CC[C@@H]1[C@@H]2CC[C@]2(C)[C@@H](C(=O)CO)CC[C@@H]12 [Example 5α-THDOC, 3α,21-dihydroxy-5α-pregnan-20-one] | GABA receptor-chloride ionophore complex (GR complex) | % | 100

###

assayed.system: GABA receptor-chloride ionophore complex (GR complex)
protocol.details: [35S]TBPS binding modulation assay
particulars: read-out: IC50, inhibition of [35S]-TBPS binding, +5 μM GABA; in the presence of 5 μM GABA
pIC50: −log10 of the molar value.
Reported values of pIC50 for individual entries
test.readout: pIC50

compound | rel | measured.result
CC(=O)[C@H]1CC[C@H]2[C@@H]3CCC4=CC(=O)CC[C@]4(C)[C@H]3CC[C@]12C [PROGESTERONE, reference compound] | = | 5.28
CC(=O)[C@H]1CC[C@H]2[C@@H]3CC=C4C[C@@H](O)CC[C@]4(C)[C@H]3CC[C@]12C [5-PREGNEN-3β-OL-20-ONE (PREGNENOLONE), 5-PREGNEN-3β-OL-20-ONE, reference compound] | < | 4.00
C[C@]12CCC(=O)C[C@@H]1CC[C@@H]1[C@@H]2CC[C@]2(C)[C@@H](O)CC[C@@H]12 [5α-ANDROSTAN-17β-OL-3-ONE, 5α-ANDROSTAN-17β-OL-3- ONE, reference compound] | = | 4.74
C[C@]12CC[C@@H](O)C[C@@H]1CC[C@@H]1[C@@H]2CC[C@]2(C)[C@@H](O)CC[C@@H]12 | = | 6.00
CO[C@@H]1C[C@H]2[C@@H]3CC[C@H]4C[C@H](O)CC[C@]4(C)[C@H]3CC[C@]2(C)[C@H]1C(C)=O [3α-HYDROXY-5α-PREGNAN-16α-METHOXY-20-ONE] | = | 5.35
CC(=O)[C@H]1CC[C@H]2[C@@H]3CC[C@H]4C[C@H](O)CC[C@]4(C)[C@H]3CC[C@]12C [Example 3α-OH-DHP, 3α-hydroxy-5α-pregnan-20-one] | = | 7.42
CO[C@H]1C[C@@]2(C)[C@@H](CC[C@@H]3[C@@H]2CC[C@]2(C)[C@@H](C(C)=O)CC[C@@H]32)C[C@@H]1O [2β-METHOXY-3α-HYDROXY-5α-PREGNAN-20-ONE, 2β-Methoxy-3α-hydroxy-5α-pregnan-20-one] | = | 7.18
CCO[C@H]1C[C@@]2(C)[C@@H](CC[C@@H]3[C@@H]2CC[C@]2(C)[C@@H](C(C)=O)CC[C@@H]32)C[C@@H]1O [2β-ETHOXY-3α-HYDROXY-5α-PREGNAN-20-ONE, 2β-Ethoxy-3α-hydroxy-5α-pregnan-20-one] | = | 7.01
CC(=O)[C@H]1CC[C@H]2[C@@H]3CC[C@H]4C[C@H](O)CC[C@]4(C)[C@H]3C(=O)C[C@]12C [alphaxalone, 5α-PREGNAN-3α-OL-11,20-DIONE, reference compound] | = | 6.58
C[C@]12CC[C@@H](O)C[C@@H]1CC[C@@H]1[C@@H]2CC[C@]2(C)[C@@H](C(=O)CO)CC[C@@H]12 [Example 5α-THDOC, 3α,21-dihydroxy-5α-pregnan-20-one] | = | 7.10

###

Catalogue of inhibition at 1 µM values
assayed.system: estrogen receptor (Bos taurus)
Construct: from tissue; host or cells: bovine uterus cytosol
Sequence (P49884 whole entry): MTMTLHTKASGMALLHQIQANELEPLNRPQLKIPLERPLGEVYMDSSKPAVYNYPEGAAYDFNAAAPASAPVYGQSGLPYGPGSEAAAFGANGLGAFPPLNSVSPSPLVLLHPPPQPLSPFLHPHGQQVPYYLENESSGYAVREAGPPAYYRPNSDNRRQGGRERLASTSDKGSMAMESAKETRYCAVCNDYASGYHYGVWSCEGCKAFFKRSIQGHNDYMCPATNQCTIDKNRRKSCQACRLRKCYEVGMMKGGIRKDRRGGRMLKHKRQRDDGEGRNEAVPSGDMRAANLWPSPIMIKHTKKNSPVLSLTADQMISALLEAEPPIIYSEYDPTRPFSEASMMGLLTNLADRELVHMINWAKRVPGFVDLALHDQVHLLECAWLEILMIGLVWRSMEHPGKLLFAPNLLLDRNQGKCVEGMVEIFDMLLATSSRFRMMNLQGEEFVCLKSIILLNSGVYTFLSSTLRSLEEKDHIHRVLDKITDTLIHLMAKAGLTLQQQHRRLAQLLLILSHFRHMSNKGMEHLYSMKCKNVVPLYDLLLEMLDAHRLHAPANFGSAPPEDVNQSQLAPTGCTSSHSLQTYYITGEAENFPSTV
protocol.details: Inhibition of 3H-estradiol binding to bovine uteral estrogen receptors
particulars: read-out: % of inhibition of 3H-estradiol binding, B, competitor 10^-6 M; 0.25 nM 3H-estradiol
test.readout: inhibition at 1 µM

compound | assayed.system | test.readout | measured.result
C[C@]12CC[C@@H](O)C[C@@H]1CC[C@@H]1[C@@H]2CC[C@]2(C)[C@@H](C(=O)CO)CC[C@@H]12 [Example 5α-THDOC, 3α,21-dihydroxy-5α-pregnan-20-one] | estrogen receptor (Bos taurus) | inhibition at 1 µM | 4%
C[C@H](O)[C@H]1CC[C@H]2[C@@H]3CC[C@H]4C[C@H](O)CC[C@]4(C)[C@H]3CC[C@]12C [5α-pregnanediol, 5α-pregnan-3α,20α-diol] | estrogen receptor (Bos taurus) | inhibition at 1 µM | 0%
CC(C)(O)[C@H]1CC[C@H]2[C@@H]3CC[C@H]4C[C@H](O)CC[C@]4(C)[C@H]3CC[C@]12C [3α,20-dihydroxy-20-methyl-5α-pregnane] | estrogen receptor (Bos taurus) | inhibition at 1 µM | 0%
C[C@]12CC[C@@H](O)C[C@H]1CC[C@@H]1[C@@H]2CC[C@]2(C)[C@@H](C(=O)CO)CC[C@@H]12 [5β-PREGNAN-3α,21-DIOL-20-ONE] | estrogen receptor (Bos taurus) | inhibition at 1 µM | 4%

###

Test system: metrazol induced convulsions
protocol.details: Inhibition of metrazol induced convulsions (Table 2)
Format: in vivo, mice
particulars: Mus musculus; inhibition of metrazol induced convulsions; read-out: Anti-Metrazol ED50
Readings of ED50 for the listed compounds

compound | ED50 / mg/kg
C[C@]12CC[C@@H](O)C[C@@H]1CC[C@@H]1[C@@H]2CC[C@]2(C)[C@@H](C(=O)CO)CC[C@@H]12 [Example 5α-THDOC, 3α,21-dihydroxy-5α-pregnan-20-one] | 8
CC(=O)[C@H]1CC[C@H]2[C@@H]3CC[C@H]4C[C@](C)(O)CC[C@]4(C)[C@H]3CC[C@]12C [3α-HYDROXY-3β-METHYL-5α-PREGNAN-20-ONE, 3α-hydroxy-3β-methyl-5α-pregnan-20-one] | 9
CC(=O)[C@H]1CC[C@H]2[C@@H]3CC[C@H]4C[C@H](O)CC[C@]4(C)[C@H]3CC[C@]12C [Example 3α-OH-DHP, 3α-hydroxy-5α-pregnan-20-one] | 5
CCO[C@H]1C[C@@]2(C)[C@@H](CC[C@@H]3[C@@H]2CC[C@]2(C)[C@@H](C(C)=O)CC[C@@H]32)C[C@@H]1O [2β-ETHOXY-3α-HYDROXY-5α-PREGNAN-20-ONE, 2β-Ethoxy-3α-hydroxy-5α-pregnan-20-one] | 6
C[C@]12CC[C@@H](O)C[C@H]1CC[C@@H]1[C@@H]2CC[C@]2(C)[C@@H](C(=O)CO)CC[C@@H]12 [5β-PREGNAN-3α,21-DIOL-20-ONE] | 10
CO[C@H]1C[C@@]2(C)[C@@H](CC[C@@H]3[C@@H]2CC[C@]2(C)[C@@H](C(C)=O)CC[C@@H]32)C[C@@H]1O [2β-METHOXY-3α-HYDROXY-5α-PREGNAN-20-ONE, 2β-Methoxy-3α-hydroxy-5α-pregnan-20-one] | 60
CC(=O)[C@H]1CC[C@H]2[C@@H]3CCC4=C[C@H](O)CC[C@]4(C)[C@H]3CC[C@]12C [3α-HYDROXY-4-PREGNEN-20-ONE] | 20
